molecular target: PTPN3, P26045; assay: holdup assay; design: key: below the threshold = too weak to quantify, mostly under pKd 3.1 to 4; settings: plain residues with an end cap or a label only (N-terminal biotin on a linker: ahx)
Sequence (P26045 505-587): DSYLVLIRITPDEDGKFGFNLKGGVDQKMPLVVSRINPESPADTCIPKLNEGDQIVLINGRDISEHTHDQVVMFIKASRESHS

Binder: TVICWPGSLV [LNX2, Q8N448]
pKd: 4.23
//
Binder: RAVEEEESRF [PSCDBP, O60759]
pKd: 3.98
//
Binder: RRRKRKRTYL [HPV49-L2, P36762]
pKd: 3.72
//
Binder: GYDWGPATDL [TJP3, O95049]
pKd: 4.27
//
Binder: SDSSGQEYSL [KCTD3, Q9Y597]
pKd: 4.14
